system: RXF 393 renal; assay: NCI-60 one-dose screen, 48 h; details: 10 µM unless noted
About 83,000 compounds went through this panel and 20% of them were active in at least one assay; those are over-represented in the sample as a whole. Active and inactive are the calls of the source. The calls were made as follows: active = growth percent below 10; inactive = the rest.
Write down one outcome, taken from active, inactive

Prompt: Outcome logged for CC(C)(C)c1ccc(/C=C/C(=O)Nc2ccc(O)cc2)cc1 in this assay:
Completion: inactive

Prompt: Outcome logged for CCc1ccccc1-n1c(-c2ccc(Cl)cc2)cc(-c2ccc(Cl)cc2)c(C#N)c1=O in this assay:
Completion: inactive

Prompt: Outcome logged for COc1cc(N2C(=O)c3nccnc3C2=O)cc(OC)c1OC in this assay:
Completion: inactive

Prompt: Outcome logged for Cc1ccc(Cl)cc1NC(=O)c1cc2ccccc2cc1O in this assay:
Completion: active

Prompt: Outcome logged for CCN(CC)c1nc(SCC(=O)Nc2nc3ccc(C)cc3s2)nc(-c2ccccc2)c1C#N in this assay:
Completion: inactive
